FYI, the data here is from paper PMC11870044.

- Assay comment: Experimental log P, shake-flask method n-octanol/water
- Assay type: physicochemical
- Test conditions: 25 ± 1 °C
- Experimental: The mixture was then allowed to stand for 24 h at the same temperature for further phase separation. A stock solution with a concentration of 0.01 mol per liter in water, pre-saturated with n-octanol, was prepared for each compound. […] Phase separation was achieved by centrifugation of the vessels for 3 min at 4000× g (25 ± 1 °C), and the concentration of the solute in the water phase (C water) was measured from their absorbance at 205 nm using a UV spectrophotometer. […]

Structure smiles | logP
COc1ccc(OC)c(NC2=C(Cl)C(=O)c3ccccc3C2=O)c1 | 1.94
Cc1ccccc1NC1=C(Cl)C(=O)c2ccccc2C1=O | 2.2
O=C1C(Cl)=C(Nc2ccccc2)C(=O)c2ccccc21 | 1.61
O=C1C(Cl)=C(Nc2ccc(O)cc2)C(=O)c2ccccc21 | 1.22
CN(C1=C(Cl)C(=O)c2ccccc2C1=O)c1ccccc1 | 2.33
O=C1C=C(Nc2ccc(O)cc2)C(=O)c2ccccc21 | 1.17
COc1ccc(NC2=CC(=O)c3ccccc3C2=O)cc1 | 1.39
O=C1C=C(Nc2ccccc2)C(=O)c2ccccc21 | 1.42
Cc1ccccc1NC1=CC(=O)c2ccccc2C1=O | 1.89
CN(C1=CC(=O)c2ccccc2C1=O)c1ccccc1 | 2.31
COc1ccc(NC2=C(Cl)C(=O)c3ccccc3C2=O)cc1 | 1.81
COc1ccc(OC)c(NC2=CC(=O)c3ccccc3C2=O)c1 | 1.6

----------
- System: Escherichia coli (ATCC 25922)
- Assay comment: Minimum inhibitory concentration, broth dilution method
- Type: cell-based
- Test conditions: ATCC25922, broth dilution, triplicate, read-out: MIC E. coli G−
- Method: The microorganisms used were Staphylococcus aureus (ATCC 25923), Proteus mirabilis (ATCC 12453) Enterococcus faecalis (ATCC 29212), Escherichia coli (ATCC 25922), Salmonella typhimurium (ATCC 19585), and Klebsiella pneumoniae (ATCC 700603). The antimicrobial activity of the phenylaminonaphthoquinones 1–12 was determined by the broth dilution method. The following concentrations were tested: 200, 100, 50, 25, and 12.5 μg/mL. After incubation, the microbial growth was examined. […]
Reported MIC values for a set of compounds

Compound | MIC
Cc1nnc(SCC2=C(C(=O)O)N3C(=O)[C@@H](NC(=O)Cn4cnnn4)[C@H]3SC2)s1 [CFZ, cefazolin, reference compound] | > 50 µg/mL
COc1ccc(OC)c(NC2=C(Cl)C(=O)c3ccccc3C2=O)c1 | 23.5 µg/mL
COc1ccc(NC2=C(Cl)C(=O)c3ccccc3C2=O)cc1 | > 50 µg/mL

----------
- System: Plasmodium falciparum 3D7 (chloroquine-sensitive)
- Assay comment: In vitro antiplasmodial screening, parasitemia by flow cytometry
- Assay type: cell-based
- Test conditions: Plasmodium falciparum, 3D7, read-out: IC50 against 3D7 strain at equimolar concentrations
Quantity: IC50 (nM)

Structure smiles | Reported result
Cc1ccccc1NC1=CC(=O)c2ccccc2C1=O | 18.6

----------
- Tested on: Plasmodium falciparum FCR-3 (chloroquine-resistant)
- Assay comment: In vitro antiplasmodial screening, parasitemia by flow cytometry
- Assay type: cell-based
- Test conditions: Plasmodium falciparum, FCR3; FCR-3 chloroquine-resistant, 48 h; read-out: Plasmodium falciparum FCR-3 IC50
Binary call on IC50 with cut-off 0.7 µg/mL: strictly below means YES, and equality or higher means NO.

Structure smiles | Answer label
Cc1ccccc1NC1=C(Cl)C(=O)c2ccccc2C1=O | NO
COc1ccc(OC)c(NC2=C(Cl)C(=O)c3ccccc3C2=O)c1 | NO
Cc1ccccc1NC1=CC(=O)c2ccccc2C1=O | YES
COc1ccc(NC2=C(Cl)C(=O)c3ccccc3C2=O)cc1 | NO
O=C1C=C(Nc2ccccc2)C(=O)c2ccccc21 | NO
O=C1C(Cl)=C(Nc2ccccc2)C(=O)c2ccccc21 | NO
O=C1C(Cl)=C(Nc2ccc(O)cc2)C(=O)c2ccccc21 | NO
COc1ccc(OC)c(NC2=CC(=O)c3ccccc3C2=O)c1 | NO
CN(C1=C(Cl)C(=O)c2ccccc2C1=O)c1ccccc1 | NO
CN(C1=CC(=O)c2ccccc2C1=O)c1ccccc1 | YES

----------
- System: Enterococcus faecalis (ATCC 29212)
- Assay comment: Minimum inhibitory concentration, broth dilution method
- Type: cell-based
- Test conditions: ATCC29212, broth dilution, triplicate, read-out: MIC E. faecalis G+
Quantity: MIC

Compound | Reported result
O=C1C(Cl)=C(Nc2ccccc2)C(=O)c2ccccc21 | > 50 µg/mL
CO/N=C(\C(=O)N[C@@H]1C(=O)N2C(C(=O)O)=C(COC(C)=O)CS[C@H]12)c1csc(N)n1 [CTX, cefotaxime, reference compound] | 10.9 µg/mL
O=C1C=C(Nc2ccccc2)C(=O)c2ccccc21 | 49.9 µg/mL
Cc1ccccc1NC1=C(Cl)C(=O)c2ccccc2C1=O | 37.1 µg/mL
Cc1ccccc1NC1=CC(=O)c2ccccc2C1=O | 50 µg/mL
CN(C1=CC(=O)c2ccccc2C1=O)c1ccccc1 | 30.2 µg/mL
O=C1C(Cl)=C(Nc2ccc(O)cc2)C(=O)c2ccccc21 | 49.9 µg/mL
Cc1nnc(SCC2=C(C(=O)O)N3C(=O)[C@@H](NC(=O)Cn4cnnn4)[C@H]3SC2)s1 [CFZ, cefazolin, reference compound] | 8.4 µg/mL
COc1ccc(OC)c(NC2=CC(=O)c3ccccc3C2=O)c1 | 38.2 µg/mL
COc1ccc(OC)c(NC2=C(Cl)C(=O)c3ccccc3C2=O)c1 | 70.8 µg/mL
CN(C1=C(Cl)C(=O)c2ccccc2C1=O)c1ccccc1 | 47.2 µg/mL
COc1ccc(NC2=C(Cl)C(=O)c3ccccc3C2=O)cc1 | 40.1 µg/mL

----------
- Tested on: Staphylococcus aureus (ATCC 25923)
- Assay comment: Minimum inhibitory concentration, broth dilution method
- Assay type: cell-based
- Test conditions: broth dilution, triplicate

Structure smiles | Test system | Readout units | MIC S. aureus G+
O=C1C=C(Nc2ccccc2)C(=O)c2ccccc21 | Staphylococcus aureus (ATCC 25923) | µg/mL | 3.9
CN(C1=CC(=O)c2ccccc2C1=O)c1ccccc1 | Staphylococcus aureus (ATCC 25923) | µg/mL | 5.5
Cc1ccccc1NC1=CC(=O)c2ccccc2C1=O | Staphylococcus aureus (ATCC 25923) | µg/mL | 3.8
COc1ccc(OC)c(NC2=C(Cl)C(=O)c3ccccc3C2=O)c1 | Staphylococcus aureus (ATCC 25923) | µg/mL | 4.7
O=C1C=C(Nc2ccc(O)cc2)C(=O)c2ccccc21 | Staphylococcus aureus (ATCC 25923) | µg/mL | 3.2
COc1ccc(NC2=CC(=O)c3ccccc3C2=O)cc1 | Staphylococcus aureus (ATCC 25923) | µg/mL | 5.7

----------
- Tested on: Escherichia coli (ATCC 25922)
- Assay comment: Minimum inhibitory concentration, broth dilution method
- Type: cell-based
- Test conditions: ATCC25922, broth dilution, triplicate, read-out: MIC E. coli G−
Reported MIC values for a set of compounds

Compound | Comparative sign | MIC / µg/mL
CN(C1=C(Cl)C(=O)c2ccccc2C1=O)c1ccccc1 | = | 28.6
O=C1C=C(Nc2ccccc2)C(=O)c2ccccc21 | = | 26.3
O=C1C(Cl)=C(Nc2ccc(O)cc2)C(=O)c2ccccc21 | = | 39.8
CN(C1=CC(=O)c2ccccc2C1=O)c1ccccc1 | > | 50
CO/N=C(\C(=O)N[C@@H]1C(=O)N2C(C(=O)O)=C(COC(C)=O)CS[C@H]12)c1csc(N)n1 [CTX, cefotaxime, reference compound] | > | 50
COc1ccc(OC)c(NC2=CC(=O)c3ccccc3C2=O)c1 | > | 50
Cc1ccccc1NC1=CC(=O)c2ccccc2C1=O | = | 25.5
O=C1C(Cl)=C(Nc2ccccc2)C(=O)c2ccccc21 | > | 50
Cc1ccccc1NC1=C(Cl)C(=O)c2ccccc2C1=O | > | 50
